procedure.text: IANBD-channel fluorescence artefacts in buffer – biochemical, artefact control for cardiac RTF calcium sensitizer project, confirmation (AID 504382)
condition.summary: IANBD fluorescence interference counterscreen, EC20 Ca2+, at 7.2 µM, active compounds read high, scaled: EC20 calcium 0, EC100 calcium 100
In all, about 2,500 compounds went through this assay and about 460 (18%) were called active. Only a sample is shown.
Classification field: enter Fulfilled for fluorescence artifact activation values not below 0.09%, Not fulfilled for values below it.

Please review the following examples before continuing.
COC1C(CO)OC(n2c3c(Cl)cccc3c3c4c(c5c6cccc(Cl)c6[nH]c5c32)C(=O)NC4=O)C(O)C1O (stereo unspecified); Not fulfilled
CCOc1ccc(S(=O)(=O)n2ccnc2)c2ccccc12; Fulfilled
Nc1ccn([C@H]2C[C@H](O)[C@@H](CO)O2)c(=O)n1; Fulfilled
CCOc1cc(/C=C2\NC(=O)NC2=O)cc([N+](=O)[O-])c1O; Not fulfilled

Q) Evaluate Nc1ccc2cc3[nH]c4cc(N)ccc4c3nc2c1 : fluorescence artifact activation at minimum 0.09%?
A) Fulfilled

* * *

procedure.text: IANBD-channel fluorescence artefacts in buffer – biochemical, artefact control for cardiac RTF calcium sensitizer project, confirmation (AID 504382)
condition.summary: IANBD fluorescence interference counterscreen, EC20 Ca2+, at 7.2 µM, active compounds read high, scaled: EC20 calcium 0, EC100 calcium 100
Hit rate of the full screen: of about 2,500 compounds, about 460 (18%) were called active. These entries were drawn from the full list.
# fluorescence artifact activation listing for each entry below
Provide the reading as a plain figure in %.

COCCn1c(=O)c2ccccc2c2ccccc2c1=O; 17.2
CS(=O)(=O)c1ccc(C(=O)OCC(=O)Nc2cccnc2Cl)cc1[N+](=O)[O-]; 0
c1ccc2c(c1)CN1CCCC1=N2; -0.08
O=C(c1ccccc1C(=O)N1CCN(c2ccccc2)CC1)N1CCN(c2ccccc2)CC1; -0.08

Q) Provide measured fluorescence artifact activation value, entry: COCCn1c(SCC(=O)Nc2ccc(NC(=O)c3ccco3)c(OC)c2)nc2ccccc2c1=O
A) 1.13

Q) Provide measured fluorescence artifact activation value, entry: CC1(C)CCN2CCC(C)(C)c3c(O)ccc1c32
A) 11.3

* * *

procedure.text: IANBD-channel fluorescence artefacts in buffer – biochemical, artefact control for cardiac RTF calcium sensitizer project, confirmation (AID 504382)
condition.summary: IANBD fluorescence interference counterscreen, EC20 Ca2+, at 7.2 µM, active compounds read high, scaled: EC20 calcium 0, EC100 calcium 100
Hit rate of the full screen: of about 2,500 compounds, about 460 (18%) were called active. The list is a sample of the results.
# fluorescence artifact activation listing for each entry below
Provide the reading as a plain figure in %.

COc1ccc(-n2nc3c(N4CCC(C(=O)NCc5ccco5)CC4)nnc(C)c3c2C)cc1; 0.15

Q) Provide measured fluorescence artifact activation value, entry: Cc1cc([N+](=O)[O-])ccc1-c1ccc(/C=N/NC(=O)c2ccc(Br)o2)o1
A) 0.29

Q) Provide measured fluorescence artifact activation value, entry: O=C(COc1ccccc1F)NC1CC1
A) 10.7

Q) Provide measured fluorescence artifact activation value, entry: CCOc1ccc(CNC(=O)c2ccc(Sc3ccc(Cl)cc3)c(NC(C)=O)c2)cc1
A) 1.09

Q) Provide measured fluorescence artifact activation value, entry: CN(C)CCOc1ccccc1C(C)(C)C
A) 0.06

Q) Provide measured fluorescence artifact activation value, entry: NC(=O)c1ccccc1N/C=C/C(=O)c1ccc(Cl)cc1Cl
A) 1.35

* * *

# fluorescence artifact activation listing for each entry below
procedure.text: IANBD-channel fluorescence artefacts in buffer – biochemical, artefact control for cardiac RTF calcium sensitizer project, confirmation (AID 504382)
condition.summary: IANBD fluorescence interference counterscreen, EC20 Ca2+, at 7.2 µM, active compounds read high, scaled: EC20 calcium 0, EC100 calcium 100
About 460 (18%) of roughly 2,500 compounds were called active. Only a sample is shown.
Provide the reading as a plain figure in %.

// worked examples, fluorescence artifact activation included
CC(=O)N1CCCc2cc(S(=O)(=O)N3CCCC(C(=O)Nc4cccc(C)c4)C3)ccc21 (stereo not given); 0.1
N#C/C(=C/c1ccc(-c2ccccc2)o1)c1nc(-c2cccs2)cs1; 19.2
CC(=O)c1ccc(NC(=O)C2CCCN(S(=O)(=O)c3c(C)[nH]c(=O)[nH]c3=O)C2)cc1 (stereo not given); 20.3

Q) Provide measured fluorescence artifact activation value, entry: N#C/C(=C\C=C\c1ccccc1)c1nc(-c2ccc3c(c2)OCO3)cs1
A) 0.13

Q) Provide measured fluorescence artifact activation value, entry: Cc1cc(Cl)ccc1OCC(=O)Nc1nc(-c2cccs2)cs1
A) 0.04

Q) Provide measured fluorescence artifact activation value, entry: O=S(=O)(c1ccccc1Cl)N1CCC(Cc2ccccc2)CC1
A) 0.09

* * *

procedure.text: IANBD-channel fluorescence artefacts in buffer – biochemical, artefact control for cardiac RTF calcium sensitizer project, confirmation (AID 504382)
condition.summary: IANBD fluorescence interference counterscreen, EC20 Ca2+, at 7.2 µM, active compounds read high, scaled: EC20 calcium 0, EC100 calcium 100
Out of some 2,500 compounds screened, about 460 (18%) were called active. The list is a sample of the results.
Classification field: enter satisfied for fluorescence artifact activation values not below 20%, not satisfied for values below it.

Q) Evaluate COc1ccc(/C=N/N=C2/CC(C)(C)Cc3n[nH]c(=O)cc32)cc1 : fluorescence artifact activation at minimum 20%?
A) satisfied

Q) Evaluate CCOC(=O)c1c(C)[nH]c(C2=NNC(=NC(C)COC)SC2)c1C (stereo not given) : fluorescence artifact activation at minimum 20%?
A) satisfied

Q) Evaluate CCn1c(O)c(/C=N/N=C/c2ccc(OC)cc2)c2cc(C3=NNC(=O)CC3)ccc21 : fluorescence artifact activation at minimum 20%?
A) not satisfied

Q) Evaluate O=C(Cc1ccccc1)Nn1c(O)c(/C=C2\C=Nc3ccccc32)sc1=S : fluorescence artifact activation at minimum 20%?
A) satisfied

Q) Evaluate O=C(NCCOc1ccccc1Cl)C(=O)Nc1ccccc1 : fluorescence artifact activation at minimum 20%?
A) not satisfied

Q) Evaluate CCOC(=O)[C@H]1[C@H]2COc3ccccc3[C@@H]2N2C(=O)CN(Cc3ccc(C)cc3)C(=O)[C@@]12C : fluorescence artifact activation at minimum 20%?
A) not satisfied

Q) Evaluate C=CCN1C(=O)c2cccc3c(N4CCCCC4)ccc(c23)C1=O : fluorescence artifact activation at minimum 20%?
A) not satisfied

Q) Evaluate COc1ccc(C2=NN(C(=O)CSc3ncccn3)C(c3ccc(C)cc3)C2)cc1 (stereo not given) : fluorescence artifact activation at minimum 20%?
A) satisfied

Q) Evaluate CC1=Nc2ccccc2/C1=C/c1sc(=S)n(-c2cccc(C(=O)O)c2)c1O : fluorescence artifact activation at minimum 20%?
A) not satisfied

Q) Evaluate CNC(=S)N1N=C(c2ccc(Br)cc2)CC1c1ccc(N(C)C)cc1 (stereo not given) : fluorescence artifact activation at minimum 20%?
A) not satisfied

* * *

procedure.text: IANBD-channel fluorescence artefacts in buffer – biochemical, artefact control for cardiac RTF calcium sensitizer project, confirmation (AID 504382)
condition.summary: IANBD fluorescence interference counterscreen, EC20 Ca2+, at 7.2 µM, active compounds read high, scaled: EC20 calcium 0, EC100 calcium 100
Screen size: about 2,500 compounds; about 460 (18%) were called active. Not all results are given here.
property.name: fluorescence artifact activation

// worked examples, fluorescence artifact activation included
COc1ccc(CCNC(=O)COC(=O)c2cc(=O)[nH]c3ccccc23)cc1; 15.4% (active)
COc1cccc(C2C=C(c3ccc(Br)s3)Nc3ncnn32)c1OC (stereo unspecified); -0.01% (inactive)
Oc1ccc2ccccc2c1C=NCc1cn2ccsc2n1; -0.01% (inactive)
Cc1ccnc2nc(C(=O)OCC(=O)NCCc3ccccc3)nn12; 7.51% (inactive)
S=C(Nc1ccc(Cl)cc1)N(CCCN1CCOCC1)Cc1ccco1; 0.04% (inactive)

We now examine a further compound.
Q) Provide measured fluorescence artifact activation value, entry: COCCCN(C(=O)c1cccnc1SC)c1c(N)n(Cc2ccccc2)c(=O)[nH]c1=O
A) 15.1% (active)

* * *

procedure.text: IANBD-channel fluorescence artefacts in buffer – biochemical, artefact control for cardiac RTF calcium sensitizer project, confirmation (AID 504382)
condition.summary: IANBD fluorescence interference counterscreen, EC20 Ca2+, at 7.2 µM, scaled: EC20 calcium 0, EC100 calcium 100
About 460 (18%) of roughly 2,500 compounds were called active.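 The calls were made as follows: active = mean activation above a cutoff of low control average plus 3 SD from the earlier screen (cut at about 12% in these data); inactive = the rest.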 Only a sample is shown.
In this exercise, the only acceptable responses are y = active, n = inactive

Please review the following examples before continuing.
Cn1cccc1/C=C1\SC(=S)N(NC(=O)c2ccccc2)C1=O; y
O=C(N/N=C\c1c(O)ccc2ccccc12)c1cncc(Br)c1; n
Cc1[nH]c(=S)c(C#N)c(C)c1CCC#N; n
O=C(Nc1ccc(Cl)cn1)C1CCN(S(=O)(=O)c2cccs2)CC1; y
O=C(CCSc1ccccc1)N1CCN(C(=O)c2ccco2)CC1; y
O=C(c1cc(-c2cccs2)nn1-c1ccccc1)N1CCN(S(=O)(=O)c2ccccc2)CC1; n

Q) Per the records of this test, what outcome belongs to COc1ccccc1N1C(C)=CC(=C(C#N)c2nc3ccccc3s2)C=C1C ?
A) n

Q) Per the records of this test, what outcome belongs to Cc1onc(-c2ccccc2)c1C(=O)Nc1nc(-c2cc(F)ccc2F)cs1 ?
A) n

Hey, just so you know, these numbers are from PubChem BioAssay AID504382.
